System: SK-MEL-2
Assay: cells
Format: cell-based
Conditions: Homo sapiens, SK-MEL-2, 72 h
quantity_measured: IC50

q: Suppose we examine the molecule CN(C)C(=O)c1cc2cnc(Nc3ccc(N4CCNCC4)cn3)nc2n1C1CCCC1 ; what IC50 value has been reported?
a: > 10 µM

----------
Test system: panel of nearly 500 cancer cell lines
Assay: Cancer Cell Line Encyclopedia profiling, 3-day CellTiter-Glo
Type: cell-based
Settings: Homo sapiens, KYSE-410
Please respond with reported EC50 for every item in the list.

q: Suppose we examine the compound CN(C)C(=O)c1cc2cnc(Nc3ccc(N4CCNCC4)cn3)nc2n1C1CCCC1 ; what EC50 value has been reported?
a: > 8 µM

q: Suppose we examine the compound CC(=O)c1c(C)c2cnc(Nc3ccc(N4CCNCC4)cn3)nc2n(C2CCCC2)c1=O [Palbociclib, reference compound] ; what EC50 value has been reported?
a: > 8 µM
